All figures here come from patent US20200138960A1.

- assay_target: T1, TfR1 (human, Sino Biological Inc.) (human, UniProt P02786 89-760)
- T1 construct: Bought protein; the catalogue number printed for it (11020-MM02) is the same as that printed for the anti-TfR1 primary antibody, so the construct cannot be told; also called TfFR1; receptor TfR1
- T1 sequence (P02786 89-760 limits assumed): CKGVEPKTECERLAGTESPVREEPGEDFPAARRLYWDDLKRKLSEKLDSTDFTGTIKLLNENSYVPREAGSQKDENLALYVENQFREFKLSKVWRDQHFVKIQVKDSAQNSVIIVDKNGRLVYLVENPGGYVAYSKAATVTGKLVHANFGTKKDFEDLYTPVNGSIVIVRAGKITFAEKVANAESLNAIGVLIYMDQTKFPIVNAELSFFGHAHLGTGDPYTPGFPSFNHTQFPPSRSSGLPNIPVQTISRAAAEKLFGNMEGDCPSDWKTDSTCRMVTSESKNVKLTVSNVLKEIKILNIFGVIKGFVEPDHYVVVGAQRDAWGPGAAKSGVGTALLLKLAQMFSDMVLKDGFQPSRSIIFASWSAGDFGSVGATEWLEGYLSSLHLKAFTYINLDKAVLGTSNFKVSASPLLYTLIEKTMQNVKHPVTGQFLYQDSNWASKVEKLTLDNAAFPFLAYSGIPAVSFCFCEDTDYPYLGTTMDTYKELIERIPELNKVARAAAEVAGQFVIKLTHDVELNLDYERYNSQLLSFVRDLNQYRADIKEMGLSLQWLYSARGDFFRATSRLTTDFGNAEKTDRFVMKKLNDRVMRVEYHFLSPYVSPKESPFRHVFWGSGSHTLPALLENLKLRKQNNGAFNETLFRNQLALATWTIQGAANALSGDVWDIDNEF
- method_description: ELISA value converted by purity of target protein
Quick list: Converted ELISA value per entry.
Lab note: record just the number, no unit beside it.

N-loop (designed binder, expressed in E. coli from PET22b; Purity of target protein 77.1%; also called N-loop modified protein) MSSQIRQNYHQDSEAAVNRQINLYLQASYTYLSLGFYFDRDDVALEGVSHFFRELAEEKREGYERLLKMQNQRGGRIFLQDIKKPDCDEWGKTPDAMKAAMALEKKLNQALLDLHKLATDKNDPHLCDFLETHFLDEEVKLIKKMGDHLTNLHRLGGPEAGLGEYLFERLTLKHD = 1.52

Query: Please give the measured Converted ELISA value for this binder: N terminal (designed binder) MSSQIRQNYHQDSEAAVNRQINLYLQASYTYLSLGFYFDRDDVALEGVSHFFRELAEEKREGYERLLKMQNQRGGRIFLQDIKKPAEDEWGKTPDAMKAAMALEKKLNQALLDLHKLATDKNDPHLCDFLETHFLDEEVKLIKKMGDHLTNLHRLGGPEAGLGEYLFERLTLKHD
Response: 1.3
